Reported melting point values for a set of molecules
Where a name gives a salt, the structure may show the parent alone.
Only the number, expressed in °C, is required.

COc1ccc(CNc2nc(CCC(=O)O)nc3sc4c(c23)CCCC4)cc1Cl (as salt: salt) [Example 2] | 135

**Query** Which value of melting point has been reported for CCCc1nn(C)c2c(NCc3ccc(OC)c(Cl)c3)nc(-c3ccc(C(=O)O)cc3)nc12 (as salt: salt) [Example 3] in the records?
**Result** 139

**Query** And CCCc1nn(C)c2c(NCc3ccc(OC)c(Cl)c3)nc(CCC(=O)O)nc12 [Example 2] ?
**Result** 178

**Query** And COc1ccc(CNc2nc(CCC(=O)O)nc3sc4c(c23)CCCC4)cc1Cl [Example 2] ?
**Result** 229
